Where do these numbers come from? They come from patent US20180162928A1.

Target: unrelated Fc-fused recombinant protein
Experiment: ELISA, lysate on plate-bound antigen
assay endpoint: ELISA Fc Control (RSU)

{"binder": "ISOP194ER9P1A11 (designed binder, not shown: small tags and cut ends, FN3 domain; E. coli lysate in the ELISA) LPAPKNLVVSRVTEDSARLSWTAPDAAFDSFRIAYYETMVSGEAIVLTVPGSERSYDLTGLKPGTEYAVIIKGVKGGKPSWPLSAIFTT", "display unit": "RSU", "ELISA Fc Control (RSU)": 800}

a = ISOP121GR5P1G7 (designed binder, not shown: small tags and cut ends, FN3 domain; E. coli lysate in the ELISA) LPAPKNLVVSRVTEDSARLSWTAPDAAFDSFHIRYHEYDKNGEAIQLYVPGSERSYDLTGLKPGTEYGVYIHGVKGGGRSKPLWAHFTT
b = ISOP121HR5P1F2 (designed binder, not shown: small tags and cut ends, FN3 domain; E. coli lysate in the ELISA) LPAPKNLVVSRVTEDSARLSWTAPDAAFDSFTILYGETYSGGEAIVLTVPGSERSYDLTGLKPGTEYVVYIFGVKGGKWSRPLSAIFTT
c = ISOP194GR9P1F9 (designed binder, not shown: small tags and cut ends, FN3 domain; E. coli lysate in the ELISA) LPAPKNLVVSRVTEDSARLSWTAPDAAFDSFWIFYNERWQNGEAIRLIVPGSERSYDLTGLKPGTEYSVIIPGVKGGRNSFPLWAWFTT
Arrange items by their ELISA Fc Control (RSU) values in increasing order. Put the labels in the requested order and list them out.
c, b, a
